The following variants are listed with their measured folding stability dG values.
B1: 2K2A (parent)
chain: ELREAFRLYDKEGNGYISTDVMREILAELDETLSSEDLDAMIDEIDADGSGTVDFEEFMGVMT

- Variants of: B1
- Test name: folding stability dG (cDNA display proteolysis); higher = more stable
- Run parameters: PBS, room temperature
Please respond with the number in kcal/mol and leave the unit unwritten.

// below: answered variants
D54E :: 1.33
V61M :: 1.83
R3A :: 1.99
M59T :: 1.49
R23F :: 0.124
M41R :: 1.47
L8E :: 1.52
L8A :: 2.18

Task: Look at this variant and give its reported folding stability dG. R7W
Output: 1.76

Task: Which value of folding stability dG has been reported for E1K in the records?
Output: 2.27

Task: Quick check: folding stability dG of G13C ?
Output: 1.5

Task: I am curious: what folding stability dG value has been reported for S35M ?
Output: 1.86

Task: GET /values?readout=folding stability dG&item= L38K
Output: 0.304

Task: I am curious: what folding stability dG value has been reported for D54W ?
Output: 1.72
